EXPERIMENT: soluble fraction after stress (log2 fold change); higher = more stays soluble; pooled small domains, quantitative proteomics
REPORTED_CONDITIONS: stress: 50 degC
REPORTED_METRIC: soluble fraction (log2)
Give the figure only, with no unit attached.

Study these solved cases before continuing.
MONOMER_SEQUENCE: HMAVFSKKQIFDTAFALFESKGLEAITARNLGKALSSSPAPIYAHYSSITELKNELISVAKDR
soluble fraction (log2): -2.25

MONOMER_SEQUENCE: HMTNKYSSLVIGTVKTIMEEDQYKNLMGPPLKKEIIKQVDKFTNALPIEFDQNDKDFYVKKILINL
soluble fraction (log2): -0.304

MONOMER_SEQUENCE: HMFQYEKIKDYILTGLEEGTWQAGDKIPSEAELVMSLNVSRMTVNRAVRELANSGLLVRIPGAGTFVATE
soluble fraction (log2): -0.575

MONOMER_SEQUENCE: HMGDFVIVPDLIGKTIEEFDSELNELNLKYIISDSGNYNPDFKINSVLDQLPNANSKVKGGRKIYITLNAS
soluble fraction (log2): -1.37

MONOMER_SEQUENCE: HMDFLKSVDLSKYSKVESLILSHLSKGDFDIDDFIRSFSLGTDEVTRAIVSLEIEGIILRKGNRIFRKKS
soluble fraction (log2): -0.0402

MONOMER_SEQUENCE: HMVQISNTDDLYPIVQRIVDANPQSVEDYKNGKAKALGFLVGQMMKETKGKANPSMVNDLIIKAIEE
soluble fraction (log2): 0.123

MONOMER_SEQUENCE: HMTANTQVENIRLELQRYMDEHGISQVTVARGIGKTHPVISQFLNNKYPGDVEEVARAIESWLTKQHEKAA
soluble fraction (log2): -0.0876

Next item in the queue.
Assign soluble fraction (log2) to the following record: `HMQITTVSPKNYAEAELIGQRFREGNPVVMDLSKLDSDLGQRLVDFASGLVFALNGTVERIAKKVFLLSP`
-0.943

Origin of the recorded values: the domain aggregation screens of Martell et al. (2025)
